Data provenance is paper PMC10397247.

assayed.target: T1, 4H949-bH
T1 chain: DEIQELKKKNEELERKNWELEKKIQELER
assay.info: two-hybrid library CCNG1;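 also: natural log of median RNA to DNA barcode read ratio; higher means stronger binding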
Measured interaction score of individual entries
Provide a numeric answer; units are not to be included.

Study these solved cases before continuing.
{"binder": "DKNQELEKENEELKRKIWELEKEIQELER [4H3297-bH]", "property.name": "interaction score", "value": -1.66}
{"binder": "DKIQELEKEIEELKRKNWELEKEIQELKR [4H2162-bH]", "property.name": "interaction score", "value": -1.64}

With those in mind, consider the next binder.
QUERY: Tell me the measured interaction score of DEIQELKKENEELKRENWELKKEIQELKR [4H730-bH] , please.
RESULT: 0.0896
